- tested-target: MBP-LC-RRM (human, UniProt P35637 1-384)
- Sequence (P35637 1-384): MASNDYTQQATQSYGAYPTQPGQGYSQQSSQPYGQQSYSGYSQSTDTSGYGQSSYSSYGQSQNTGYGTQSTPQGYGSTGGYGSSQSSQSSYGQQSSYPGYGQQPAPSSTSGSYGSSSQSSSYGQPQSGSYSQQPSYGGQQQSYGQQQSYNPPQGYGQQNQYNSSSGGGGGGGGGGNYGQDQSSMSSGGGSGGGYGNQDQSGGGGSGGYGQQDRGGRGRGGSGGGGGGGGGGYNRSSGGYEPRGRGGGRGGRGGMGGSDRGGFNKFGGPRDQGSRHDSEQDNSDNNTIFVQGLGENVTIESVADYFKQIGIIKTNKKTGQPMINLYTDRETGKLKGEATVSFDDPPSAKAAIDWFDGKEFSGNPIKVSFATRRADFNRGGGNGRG
- assay-details: EMSA; EMSA: 50 mM Tris-HCl pH 7.4, 150 mM KCl, 2 mM MgCl2, 2 mM DTT, 0.1 mg/ml yeast tRNA, 0.1 mg/ml BSA, room temperature, 30 min, trace 32P-RNA
- experimental-context: protein: recombinant; tags: N-terminal MBP; label: 32P
measurement-name: Kd
Just the number plus its unit, please.

>  <binder>
CCUUAACCCCUCUCUGCCUUCACUCCAACUUCUCUGCUGCUCCUCAAU (ssRNA) [As-prD RNA]

>  <Kd>
0.28 µM

$$$$

For the binder ATTGAGGAGCAGCAGAGAAGTTGGAGTGAAGGCAGAGAGGGGTTAAGG (ssDNA) [prD ssDNA] , what Kd is on record? 0.22 µM

For the binder AUUGAGGAGCAGCAGAGAAGUUGGAGUGAAGGCAGAGAGGGGUUAAGG (ssRNA) [prD RNA] , what Kd is on record? 0.06 µM
